Numbers sourced from paper PMC6137088.

- Test system: E. coli ATCC25922 ΔwaaF
- Assay type: cell-based, Escherichia coli
- test_context: Table 6, triplicates
- Description: The E. coli strains 470, F632, F653 and F2513 were kindly provided by Prof. H. Brade and Prof. S. Muller-Loennies, Research Center Borstel, Leipniz-Center for Medicine and Biosciences, Germany. […] The minimum inhibitory concentrations (MICs) of the AMPs were measured in 96-well microtiter plates according the Clinical and Laboratory Standards Institute [CLSI, formerly National Committee for Clinical Laboratory Standards (NCCLS)] […]
Where no end group is shown, it is not given here.
measurement_name: Antimicrobial activity: MIC (µg/mL)

ordered_residues: GLRKRLRKFRNKIKEDLKKIGQKIQGLLPKLAPRTDY [K16D]
measurement_name: Antimicrobial activity: MIC
relational_operator: =
reported: 2

ordered_residues: GLRKRLRKFRNKIKEKLKKEGQKIQGLLPKLAPRTDY [I20E]
measurement_name: Antimicrobial activity: MIC
relational_operator: =
reported: 4

ordered_residues: GLRKRLRKFRNKRKEKLKKIGQKIQGLLPKLAPRTDY [I13R]
measurement_name: Antimicrobial activity: MIC
relational_operator: =
reported: 16

ordered_residues: GLRKRLRKFRNKFKEKLKKIGQKIQGLLPKLAPRTDY [I13F]
measurement_name: Antimicrobial activity: MIC
relational_operator: =
reported: 2

ordered_residues: GLRKRLRKFRNKIKEKPKKIGQKIQGLLPKLAPRTDY [L17P]
measurement_name: Antimicrobial activity: MIC
relational_operator: ≥
reported: 64

ordered_residues: GLRKRLRKFRNKIKEKLKKIGQKNQGLLPKLAPRTDY [I24N]
measurement_name: Antimicrobial activity: MIC
relational_operator: =
reported: 8

ordered_residues: GLRKRLRKFRNKIKEKKKKIGQKIQGLLPKLAPRTDY [L17K]
measurement_name: Antimicrobial activity: MIC
relational_operator: =
reported: 8

ordered_residues: GLRKRLRKFRNKIKEKLKKIGQKGQGLLPKLAPRTDY [I24G]
measurement_name: Antimicrobial activity: MIC
relational_operator: =
reported: 8

ordered_residues: GLRKRLRKFRNKPKEKLKKIGQKIQGLLPKLAPRTDY [I13P]
measurement_name: Antimicrobial activity: MIC
relational_operator: =
reported: 16

ordered_residues: GLRKRLRKFRNKIKEKLPKIGQKIQGLLPKLAPRTDY [K18P]
measurement_name: Antimicrobial activity: MIC
relational_operator: =
reported: 4

ordered_residues: GLRKRLRKFRNKIKECLKKIGQKIQGLLPKLAPRTDY [K16C]
measurement_name: Antimicrobial activity: MIC
relational_operator: =
reported: 4

ordered_residues: GLRKRPRKFRNKIKEKLKKIGQKIQGLLPKLAPRTDY [L6P]
measurement_name: Antimicrobial activity: MIC
relational_operator: =
reported: 4

ordered_residues: GLRKRLRKFRNKMKEKLKKIGQKIQGLLPKLAPRTDY [I13M]
measurement_name: Antimicrobial activity: MIC
relational_operator: =
reported: 4

ordered_residues: GLRKRLRKFRNKHKEKLKKIGQKIQGLLPKLAPRTDY [I13H]
measurement_name: Antimicrobial activity: MIC
relational_operator: =
reported: 2

---

- Tested on: E. coli ATCC25922 ΔwaaF
- Format: cell-based, Escherichia coli
- test_context: Table 6, triplicates
- Protocol: The E. coli strains 470, F632, F653 and F2513 were kindly provided by Prof. H. Brade and Prof. S. Muller-Loennies, Research Center Borstel, Leipniz-Center for Medicine and Biosciences, Germany. […] The minimum inhibitory concentrations (MICs) of the AMPs were measured in 96-well microtiter plates according the Clinical and Laboratory Standards Institute [CLSI, formerly National Committee for Clinical Laboratory Standards (NCCLS)] […]
Where no end group is shown, it is not given here.
Documented Antimicrobial activity: MIC across a set of sequences
measurement_name: Antimicrobial activity: MIC (µg/mL)

ordered_residues: GLRKRLRKFRNKIKEKLKKIGQKDQGLLPKLAPRTDY [I24D]
relational_operator: =
reported: 16
--
ordered_residues: GLRKRLRKFRNKIKEKLKKIGQKIQTLLPKLAPRTDY [G26T]
relational_operator: =
reported: 4
--
ordered_residues: GLRKRLRKFRNKIKEKLKKNGQKIQGLLPKLAPRTDY [I20N]
relational_operator: =
reported: 8
--
ordered_residues: GLRKRLRKFRNKIKEKLKKIGQKIQGPLPKLAPRTDY [L27P]
relational_operator: =
reported: 4
--
ordered_residues: GLRKRLRKFRNKIKEKDKKIGQKIQGLLPKLAPRTDY [L17D]
relational_operator: ≥
reported: 64
--
ordered_residues: GLRKRLRKFRNKDKEKLKKIGQKIQGLLPKLAPRTDY [I13D]
relational_operator: ≥
reported: 64
